The following molecules are shown together with reported normalized growth values.
# PROTOCOL_SUMMARY: chemical genetic growth profiling, strain panel (AID 1159580);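 note: tested at 20 µM; growth read once vehicle control cultures reached saturation at 30 °C; 1 = growth at the plate median or of vehicle wells; lower values mean less growth of the strain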
# TEST_SETTINGS: S. cerevisiae deletion strains, growth OD, locus YBR229C, strain ROT2, hits give low values
Among all 5,500 compounds or so, about 2,000 (36%) were called active. Inconclusive results (about 18%) are left out. Some of the results follow.
QUANTITY_KIND: normalized growth

CN(C)C1C(=O)C(C(N)=O)=C(O)C2(O)C(=O)C3=C(O)c4c(O)ccc(Cl)c4C(C)(O)C3CC12 (configuration not stated)    0.991
FC(F)(F)c1cc(-c2noc(C3CCc4ccccc4O3)n2)cc(C(F)(F)F)c1 (configuration not stated)    1.02
CC12CCC(=O)C=C1CCC1C2[C@@H](O)CC2(C)C1CC[C@]2(O)C(=O)COP(=O)(O)O (some centres not stated)    1.01
OC(c1ccccc1)(c1ccccc1)c1ccncc1    1
CCN(CC)CCOC(=O)C1(C2CCCCC2)CCCCC1    1.01
CCN(CC)CCOC(=O)C(c1ccccc1)C1CCCCC1 (configuration not stated)    1
OCc1ccccc1-c1ccccc1    0.984

====

# PROTOCOL_SUMMARY: chemical genetic growth profiling, strain panel (AID 1159580);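 note: tested at 20 µM; growth read once vehicle control cultures reached saturation at 30 °C; 1 = growth at the plate median or of vehicle wells; lower values mean less growth of the strain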
# TEST_SETTINGS: S. cerevisiae deletion strains, growth OD, locus YAL030W, strain snc1
Screen size: about 5,500 compounds; about 2,000 (36%) were called active. About 18% were inconclusive and are not listed. No stated cut-off is given here; in the data, active means normalized growth mostly below about 0.91 (no sharp cut-off); inconclusive means no clear call, values can overlap the other calls; inactive means mostly above about 0.92. Some of the results follow.
Outcome codes: 1.0 (active), 0.0 (inactive)

Nc1ccc(C(=O)O)cc1    0.0
CC(Cc1cccc(C(F)(F)F)c1)NCCOC(=O)c1ccccc1 (centres undefined)    0.0
O=C(OOC(=O)c1ccccc1)c1ccccc1    0.0
O=C(OCc1ccccc1)c1ccccc1    0.0
CC(C)C[C@@H](CN)CC(=O)O    0.0
NCC(=O)c1ccccc1    0.0
CC(=O)O[C@H]1CC[C@@]2(C)C(=CC(=O)C3C4CCC(C(C)CCCC(C)C)[C@@]4(C)CCC32)C1 (some centres undefined)    0.0
O=C(CC(=O)c1ccccc1)c1ccccc1    1.0
CC(C)CCCC(C)[C@H]1CCC2C3C(=O)C=C4C[C@@H](O)CC[C@]4(C)C3CC[C@@]21C (some centres undefined)    0.0

====

# PROTOCOL_SUMMARY: chemical genetic growth profiling, strain panel (AID 1159580);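 note: tested at 20 µM; growth read once vehicle control cultures reached saturation at 30 °C; 1 = growth at the plate median or of vehicle wells; lower values mean less growth of the strain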
# TEST_SETTINGS: S. cerevisiae deletion strains, growth OD, locus YDR502C, strain sam2, hits give low values
Among all 5,500 compounds or so, about 2,000 (36%) were called active. Not shown: some 18% with an inconclusive outcome. The list shows a part of the results.
Reported normalized growth values follow for various compounds
QUANTITY_KIND: normalized growth

CC(=O)O[C@@H]1CC2C(C)(C)C(=O)C=C[C@]2(C)C2CC[C@]3(C)C(=CC(=O)O[C@H]3c3ccoc3)[C@@]21C (some centres not stated)    1.02
CO[C@H]1CC(O[C@@H]2/C(C)=C/C[C@@H]3C[C@@H](C[C@]4(CC[C@H](C)[C@@H](C5CCCCC5)O4)O3)OC(=O)[C@@H]3C=C(C)/C(=N\O)[C@H]4OC/C(=C\C=C\[C@@H]2C)[C@]43O)O[C@@H](C)C1O (some centres not stated)    0.983
CCOC(=O)[C@H](CCc1ccccc1)N[C@@H](C)C(=O)N1CCC[C@H]1C(=O)O    1.01
O=C(NCO)c1cccnc1    0.996
CC(=O)O[C@@H]1CC[C@@]2(C)C(C[C@@H](OC(C)=O)[C@@]3(C)C4=CC(=O)O[C@@H](c5ccoc5)[C@]4(C)CCC23)C1(C)C (some centres not stated)    0.983
CN(C)CCCN1c2ccccc2Sc2ccc(Cl)cc21    0.974
COc1ccccc1OCC(O)CO (configuration not stated)    1.02
CN(C)CCCN1c2ccccc2Sc2ccccc21    1.01
CN(C)[C@@H]1C(=O)C(C(N)=O)=C(O)[C@@]2(O)C(=O)C3=C(O)c4c(O)ccc(Cl)c4[C@@](C)(O)[C@H]3C[C@@H]12    1.01
CC(=O)O[C@H]1CC[C@@]2(C)C(C[C@@H](OC(C)=O)[C@@]3(C)C4=CC(=O)O[C@@H](c5ccoc5)[C@]4(C)CCC23)C1(C)C (some centres not stated)    0.992
O=C(O)c1cccnc1    1
COc1cc(C(C)=O)cc(OC)c1O    1.01

Ref: PubChem BioAssay AID1159580
